test: Solubility of palbociclib (free base) in various aqueous buffers, with total degradation by HPLC; type: physicochemical; conditions: aqueous buffer solution, 25 °C, pH 2.02, aqueous buffer, thermodynamic from solid, Sample A: 0.2M Citric Acid, pH 2.02; temperature cycle 25/40/25° C.; read-out: Solubility
measured parameter: solubility at 28 h (µg/mL)
The reply should be a number in µg/mL, with the unit left off.

Exercise: GET /values?readout=solubility at 28 h&item= CC(=O)c1c(C)c2cnc(Nc3ccc(N4CCNCC4)cn3)nc2n(C2CCCC2)c1=O [palbociclib]
Solution: 4000
